- System: T47D
- methodNotes: Growth inhibition, SRB assay, T47D
- Assay type: cell-based, human
- testSettings: Homo sapiens, 48 h, BRCA1 wild-type, 48 hours (second Table 2)
- Protocol: […] In an embodiment, IC50 values were determined by Sulforhodamine B (SRB) or MTS [3-(4,5-dimethylthiazol-2-yl)-5-(3-carboxymethoxyphenyl)-2-(4-sulfophenyl)-2H-tetrazolium] assay in immortalized and PD-OVCA cells, respectively. […]
pIC50: −log10 of the molar value.

compound: CCC1CN(C)[C@H]2Cc3c([nH]c4ccccc34)C(=S)C[C@H]1C2C(=O)OC (stereo partly shown)
testedTarget: T47D
pIC50: < 4.30

compound: CCC1CN(C)[C@H]2Cc3c([nH]c4ccccc34)/C(=N/N)C[C@H]1[C@@H]2C(=O)OC (stereo partly shown)
testedTarget: T47D
pIC50: < 4.30

compound: CCC1CN(C)[C@H]2Cc3c([nH]c4ccccc34)C(O)C[C@H]1C2C(=O)OC (stereo partly shown)
testedTarget: T47D
pIC50: < 4.30

compound: CCC1CN(C)[C@H]2Cc3c([nH]c4ccccc34)/C(=N/NC(=O)OCc3ccc(OC)cc3)C[C@H]1C2C(=O)OC (stereo partly shown)
testedTarget: T47D
pIC50: 4.59
